Data origin, for the record: patent US20250282785A1

# System: p-IKKα levels in L363 (NIK translocated multiple myeloma) cells
# assay.explanation: Effect of compounds on p-IKKα levels in L363 cells (AlphaLISA SureFire Ultra)
# Type: cell-based
# assay.setup: Homo sapiens, L-363; L363 cells, BAFF stimulated, MG132, 6 h; average of values; read-out: Assay 2 IC50
Field: IC50. Provide a value for each of the compounds that follow.

What does the data say about its IC50? Entry: "[2H]c1nc(N)c2nc(-c3cccc(-c4cc([C@]5(O)CCN(C)C5=O)on4)c3)ccc2n1" 100 to 500 nM

Which measured IC50 value corresponds to "CN1CC[C@@](O)(c2cc(-c3cccc(-c4nc(C(N)=O)c(C5CCC5)s4)c3)no2)C1=O" ? > 501 nM

Fill in: IC50 of "CN1CC[C@@](O)(c2cc(-c3cccc(-c4nc(C(N)=O)c5ccc(F)cc5n4)c3)no2)C1=O" is ___ > 501 nM

What measured IC50 goes with "CN1CC[C@@](O)(c2cc(-c3cccc(-n4nc(C(=O)O)c5c4CCCC5)c3)no2)C1=O" ? > 501 nM

Query: IC50; subject: "CN1CC[C@@](O)(c2cc(-c3cccc(-c4nc(C(N)=O)c(CN5CCCC5)s4)c3)no2)C1=O" > 501 nM

IC50 for "CN1CC[C@@](O)(c2cc(-c3cccc(-c4ncc(Nc5cn[nH]c5)c(C(N)=O)n4)c3)no2)C1=O" ? < 100 nM

Item "CN1CC[C@@](O)(c2cc(-c3cccc(-c4ccc5c(n4)c(N)nn5C)c3)no2)C1=O" has what recorded IC50? > 501 nM

---

# Tested on: p-IKKα levels in L363 (NIK translocated multiple myeloma) cells
# assay.explanation: Effect of compounds on p-IKKα levels in L363 cells (AlphaLISA SureFire Ultra)
# Assay type: cell-based
# assay.setup: Homo sapiens, L-363; L363 cells, BAFF stimulated, MG132, 6 h; average of values; read-out: Assay 2 IC50
pIC50: −log10 of the molar value.
Exercise: for every item that follows, state its recorded pIC50.

Field request: pIC50 | item: Cc1nc(N)c2nc(-c3cccc(-c4cc([C@]5(O)CCN(C)C5=O)no4)c3)ccc2n1 [Example 3] < 6.30

Consider the molecule shown here: CN1CC[C@@](O)(c2cc(-c3cccc(-c4nc(C(N)=O)c5[nH]ccc5n4)c3)no2)C1=O [Example 134] What is its recorded pIC50? > 7.00

Record request: pIC50 value, item CN1CC[C@@](O)(c2cc(-c3ccc(F)c(-c4ncc(NC5COC5)c(C(N)=O)n4)c3)no2)C1=O [Example 121] 6.30 to 7.00

Need pIC50, item CN1CC[C@@](O)(c2cc(-c3cccc(-c4nc(C(N)=O)c(Nc5ccn(C)n5)s4)c3)no2)C1=O [Example 236] > 7.00

So what does the record say about pIC50 for CN1CC[C@@](O)(c2cc(-c3cccc(-c4c[nH]c5nccnc45)c3)no2)C1=O [Example 163] ? < 6.30

Sample CN1CC[C@@](O)(c2cc(-c3cccc(-c4nc(C(N)=O)n5ccncc45)c3)no2)C1=O [Example 109] — what was its pIC50? 6.30 to 7.00

Look up pIC50: CN1CC[C@](O)(c2cc(-c3cccc(-c4nc5c(c(C(N)=O)n4)[C@H]4CC[C@@H](C5)O4)c3)no2)C1=O [Example 172] < 6.30

---

# System: p-IKKα levels in L363 (NIK translocated multiple myeloma) cells
# assay.explanation: Effect of compounds on p-IKKα levels in L363 cells (AlphaLISA SureFire Ultra)
# Format: cell-based
# assay.setup: Homo sapiens, L-363; L363 cells, BAFF stimulated, MG132, 6 h; average of values; read-out: Assay 2 IC50
test.readout: IC50

I am curious: what IC50 value has been reported for "CN1CC[C@@](O)(c2cc(-c3cccc(-c4nc5c(N)ncnc5s4)c3)no2)C1=O" ? > 0.501 µM

Entry "Cc1ccc(-c2cccc(C(N)=O)n2)cc1-c1cc([C@]2(O)CCN(C)C2=O)on1" : reported IC50 = ? > 0.501 µM

# input molecule: "CN1CC[C@@](O)(c2cc(-c3cccc(-c4ccnc5[nH]ccc45)c3)no2)C1=O" ; wanted: its IC50 > 0.501 µM

Quick one: IC50 of "Cc1ccc(C(N)=O)nc1-c1cccc(-c2cc([C@]3(O)CCN(C)C3=O)on2)c1" ? > 0.501 µM

Entry "CC(C)c1sc(-c2cccc(-c3cc([C@]4(O)CCN(C)C4=O)on3)c2)nc1C(N)=O" has what IC50? > 0.501 µM

Name the recorded IC50 for "CN1CC[C@@](O)(c2cc(-c3cccc(-c4ccc(N)c(C(N)=O)n4)c3)no2)C1=O" . < 0.1 µM

I am curious: what IC50 value has been reported for "Cc1c(-c2cccc(-c3cc([C@]4(O)CCN(C)C4=O)on3)c2)nc(C(N)=O)n1C1CC1" ? > 0.501 µM

Name the reported IC50 value associated with the molecule "CN1CC[C@@](O)(c2cc(-c3cccc(-c4ccnc(N)c4)c3)no2)C1=O" > 0.501 µM

---

Provide the reported pIC50 of each item.
# system.under.test: Recombinant Human NF-Kappab-Inducing Kinase (NIK/MAP3K14) (Homo sapiens)
# Sequence (Q99558 whole entry): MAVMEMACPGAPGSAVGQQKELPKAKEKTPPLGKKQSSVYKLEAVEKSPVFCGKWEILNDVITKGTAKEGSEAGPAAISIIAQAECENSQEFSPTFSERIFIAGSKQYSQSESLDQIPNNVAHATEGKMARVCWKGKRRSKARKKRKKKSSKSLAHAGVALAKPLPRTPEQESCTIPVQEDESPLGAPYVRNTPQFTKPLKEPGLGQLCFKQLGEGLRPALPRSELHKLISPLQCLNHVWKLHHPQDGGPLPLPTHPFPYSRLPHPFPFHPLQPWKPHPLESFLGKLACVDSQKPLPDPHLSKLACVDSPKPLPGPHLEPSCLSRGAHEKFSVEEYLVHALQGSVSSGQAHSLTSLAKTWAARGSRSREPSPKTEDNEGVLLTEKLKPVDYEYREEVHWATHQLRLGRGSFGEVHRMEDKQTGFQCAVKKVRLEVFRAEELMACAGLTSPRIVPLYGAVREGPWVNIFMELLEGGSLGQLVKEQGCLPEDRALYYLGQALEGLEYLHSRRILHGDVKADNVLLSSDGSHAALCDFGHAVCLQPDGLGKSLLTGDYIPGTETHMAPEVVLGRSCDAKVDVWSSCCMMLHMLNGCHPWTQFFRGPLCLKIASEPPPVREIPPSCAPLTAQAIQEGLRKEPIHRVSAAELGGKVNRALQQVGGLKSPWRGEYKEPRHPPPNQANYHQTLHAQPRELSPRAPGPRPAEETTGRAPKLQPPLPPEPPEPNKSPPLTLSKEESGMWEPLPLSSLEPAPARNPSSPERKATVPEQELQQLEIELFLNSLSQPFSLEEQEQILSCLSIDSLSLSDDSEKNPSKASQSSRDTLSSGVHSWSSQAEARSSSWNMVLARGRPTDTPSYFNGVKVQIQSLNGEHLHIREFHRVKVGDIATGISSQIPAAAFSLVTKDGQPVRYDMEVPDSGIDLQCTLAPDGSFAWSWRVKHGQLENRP
# assay.explanation: Inhibition of auto-phosphorylation of recombinant human NIK/MAP3K14 (AlphaScreen)
# Type: biochemical
# assay.setup: NIK/MAP3K14 auto-phosphorylation, 5 microM ATP, 1 nM enzyme, 2 h at 25° C.; average of values; read-out: Assay 1 IC50
pIC50: −log10 of the molar value.

Which value of pIC50 has been reported for CN1CCC(O)(c2cc(-c3cccc(-c4c[nH]c5ncccc45)c3)on2)C1=O (racemic) [Example 9] in the records? 6.30 to 7.00

May I ask what pIC50 has been recorded for [2H]C([2H])([2H])N1CC[C@@](O)(c2cc(-c3cccc(-c4cc(C5CC5)c(N)c(C(N)=O)n4)c3)no2)C1=O [Example 179] ? > 7.00

What value of measured pIC50 is listed for CN1CC[C@@](O)(c2cc(-c3cccc(-c4nc(C(N)=O)c(CN5CCCC5)s4)c3)no2)C1=O [Example 231] ? > 7.00

Quick one: pIC50 for COc1ccc(-c2cccc(-c3cc([C@]4(O)CCN(C)C4=O)on3)c2)nc1C(N)=O [Example 87] ? < 6.30

So what's the measured pIC50 for this one? CN1CC[C@@](O)(c2cc(-c3cccc(-c4ccnc(C(N)=O)n4)c3)no2)C1=O [Example 162] > 7.00

Entry under review: CN1CC[C@@](O)(c2cc(-c3cccc(-c4cc(N5CC(F)(F)C5)cc(C(N)=O)n4)c3)no2)C1=O [Example 100] . Reported pIC50? > 7.00

Which measured pIC50 value corresponds to CN1CC[C@@](O)(c2cc(-c3cccc(-c4ncc(NC5CC5)c(C(N)=O)n4)c3)no2)C1=O [Example 111] ? > 7.00

Would you mind telling me what pIC50 value was observed for [2H]c1nc(N)c2nc(-c3cccc(-c4ncc([C@]5(O)CCN(C)C5=O)o4)c3)ccc2n1 (single isomer, unassigned) [Example 39] ? < 6.30

Given the entry CN1CC[C@@](O)(c2cc(-c3cccc(-c4cc5cc[nH]c5c(C(N)=O)n4)c3)no2)C1=O [Example 139] , report its measured pIC50. > 7.00

Using the record for CN1C(=O)[C@](O)(c2cc(-c3cccc(-c4cc(C5CC5)c(N)c(C(N)=O)n4)c3)no2)C[C@H]1C(F)(F)F [Example 178] , report its pIC50. > 7.00

Entry Cc1sc(-c2cccc(-c3cc([C@]4(O)CCN(C)C4=O)on3)c2)nc1C(N)=O [Example 217] : reported pIC50 = ? > 7.00

Fill blank: measured pIC50 of the molecule Cc1ncnc2ccc(-c3cccc(-c4cc([C@]5(O)CCN(C)C5=O)on4)c3)nc12 [Example 25] is ____. 6.30 to 7.00

Look at this molecule and give its reported pIC50. CN1CC[C@@](O)(c2cc(-c3cccc(-c4cccc5c4CNC5=O)c3)no2)C1=O [Example 59] < 6.30

State the recorded pIC50 for this entry: Cc1ccc(-c2cc([C@]3(O)CCN(C)C3=O)no2)cc1-c1nc2c(N)ncnc2s1 [Example 175] > 7.00

Name the reported pIC50 value associated with the molecule CN1CC[C@@](O)(c2cc(-c3cccc(-c4ncc(N[C@@H]5CCOC5)c(C(N)=O)n4)c3)no2)C1=O [Example 129] > 7.00

---

# System: p-IKKα levels in L363 (NIK translocated multiple myeloma) cells
# assay.explanation: Effect of compounds on p-IKKα levels in L363 cells (AlphaLISA SureFire Ultra)
# Type: cell-based
# assay.setup: Homo sapiens, L-363; L363 cells, BAFF stimulated, MG132, 6 h; average of values; read-out: Assay 2 IC50
pIC50: −log10 of the molar value.
Assignment: determine reported pIC50 for the given compounds.

// lookup pIC50 for CN1CC[C@@](O)(c2cc(-c3cccc(-c4cccc5[nH]ccc45)c3)no2)C1=O [Example 77] < 6.30

Fill in: pIC50 of CN1CC[C@@](O)(c2cc(-c3cccc(-c4ncc(Nc5ccn(C)n5)c(C(N)=O)n4)c3)no2)C1=O [Example 130] is ___ > 7.00

GET /values?readout=pIC50&item= [2H]c1nc(N)c2nc(-c3cccc(-c4cnc([C@@]5(O)CCN(C)C5=O)s4)c3)ccc2n1 (single isomer, unassigned) [Example 32] < 6.30

Bench note: what pIC50 did CN1CC[C@@](O)(c2cc(-c3cccc(-c4cc(C(F)(F)F)c(N)c(C(N)=O)n4)c3)no2)C1=O [Example 50] show? > 7.00

Returns the measured pIC50 for the input compound. Input: CN1CC[C@@](O)(c2cc(-c3cccc(-c4nc(C(N)=O)c(N)c(C5CC5)n4)c3)no2)C1=O [Example 132] > 7.00

Which pIC50 value belongs to COc1ncccc1Nc1sc(-c2cccc(-c3cc([C@]4(O)CCN(C)C4=O)on3)c2)nc1C(N)=O [Example 213] ? > 7.00

# get_value(readout='pIC50', item= CN1CC[C@@](O)(c2cc(-c3cccc(-c4cccc(C(N)=O)n4)c3)n(C)n2)C1=O (single isomer, unassigned) [Example 30] ) < 6.30
